Every entry's value here was drawn from PubChem BioAssay (NCI).

Property: TGI; scope: individual compounds
- System: COLO 205 colon
- test protocol: NCI tumour cell line growth inhibition, 48 h
Form entry: value (µM) — number only.

CN(C)CCCOc1ccccc1NC1=C(Cl)C(=O)C(Nc2ccccc2OCCCN(C)C)=C(Cl)C1=O : 0.399

Exercise: Write down the reported TGI of COc1cc(/C(Cl)=C/C=C/C(=O)c2c(C)[n+]([O-])c3ccc(Cl)cc3[n+]2[O-])cc(OC)c1OC , test system: COLO 205 colon.
Solution: 28.2

* * *

Property: TGI; scope: individual molecules
- Tested on: A498 renal
- test protocol: NCI tumour cell line growth inhibition, 48 h
Form entry: value (µM) — number only.

O=C(Nc1ccc(Cl)cc1Cl)c1ccc(NC2=C(Cl)C(=O)N(Cc3ccccc3)C2=O)cc1 : 79.7
CC1=CCC[C@@]2(C)C(CC[C@@H]2C(C)/C=C/C(C)C)c2ccc(cc2C(=O)O)C[C@@H](O)CC1 (stereo not given in full) : 35.3
C=CC(=O)Nc1ccc(Nc2nccc(-c3ccc(N4CCCC4)c(C#N)c3)n2)cc1 : 24.9

Exercise: Recorded TGI for C=C1C(=O)OC2/C=C(\C)C(OC(C)=O)C3OC3C(C)(O)CC(OC(=O)/C(C)=C/C)C12 (stereo not given) , please?
Solution: 32.1

Exercise: Recorded TGI for Cc1[nH]ncc1-c1cc2nc(C3CC4CCN3CC4)[nH]c(=O)c2s1 (stereo not given) , please?
Solution: 8.72
